Give inhibition for every item shown.
- Test system: Tyrosine-protein kinase ABL1 (Homo sapiens), P00519 [M351T]
- Condition set: at 1 µM
A number alone suffices; assume %.

Return reported inhibition; argument: `COc1cccc(-n2ncc3c(N/N=C/c4cccc(F)c4)ncnc32)c1` 88

Return reported inhibition; argument: `NS(=O)(=O)c1ccc(N/N=C2\C(=O)Nc3ccc(C(=O)NCCc4c[nH]cn4)cc32)cc1` 9.6

Return reported inhibition; argument: `CNC(=O)c1cncc(/C=C/c2c(Cl)cccc2Cl)c1` 42.2

Return reported inhibition; argument: `CCn1c(-c2nonc2N)nc2ccncc21` 3.06

Return reported inhibition; argument: `COc1cc2ncn(-c3cc(OCc4ccccc4Cl)c(C(N)=O)s3)c2cc1OC` 32.3

Return reported inhibition; argument: `[O-][S+]1CCN(Cc2ccc(-c3ccc4ncnc(Nc5ccc(OCc6ccccc6)c(F)c5)c4c3)o2)CC1` 0.04

Return reported inhibition; argument: `NS(=O)(=O)c1cccc(-c2ccc3c(NC(=O)C4CC4)n[nH]c3c2)c1` 20.2

Return reported inhibition; argument: CC1=C(C(=O)Nc2ccc3[nH]ncc3c2)C(c2ccc(F)cc2)NC(=O)N1 (stereo not given) 3.88

Return reported inhibition; argument: CC1=C(C(=O)Nc2ccc3[nH]ncc3c2)C(c2ccc3ccccc3c2)CC(=O)N1 (stereo not given) 14.9

Return reported inhibition; argument: `CCc1cccc(NC(=O)Nc2ccc(Oc3ccc4nc(NC(=O)OC)[nH]c4c3)cc2)c1` 57.9

Return reported inhibition; argument: `Fc1cccc(COc2ccc(Nc3ncnc4sc(-c5cccs5)cc34)cc2Cl)c1` 2.68

Return reported inhibition; argument: `CCn1c(-c2nonc2N)nc2c(N3CCCC3)nccc21` -0.55

Return reported inhibition; argument: `Cc1nnc(-c2ccc(C)c(-c3ccc(C(=O)Nc4cccc(C#N)c4)cc3)c2)o1` 2.91

Return reported inhibition; argument: `Fc1cccc(COc2ccc(Nc3ncnc4cc(-c5ccc[nH]5)sc34)cc2Cl)c1` 5.26

Return reported inhibition; argument: `O=C1NC(=O)C(N2CCc3ccccc32)=C1c1ccc(Cl)cc1` 3.23

Return reported inhibition; argument: `CCn1c(-c2nonc2N)nc2cncc(C(=O)N3CC[C@H](N)C3)c21` -0.9

Return reported inhibition; argument: `CCn1c(-c2nonc2N)nc2cncc(C(=O)N3CCNCC3)c21` -0.43

Return reported inhibition; argument: `COc1cc2ncn(-c3cc(OCc4ccccc4C(F)(F)F)c(C(N)=O)s3)c2cc1OC` 19.2

Return reported inhibition; argument: `CCCN1CCC(Oc2cc(Nc3nc(Nc4cccc(F)c4C(N)=O)c4cc[nH]c4n3)c(OC)cc2Cl)CC1` 2.4

Return reported inhibition; argument: `CCn1c(-c2nonc2N)nc2c(C#CC(C)(C)O)nc(OC[C@@H](N)c3ccccc3)cc21` 0.68

Return reported inhibition; argument: `CN(C)c1cc2c(Nc3ccc4nc(Cc5ccccc5)[nH]c4c3)ncnc2cn1` 3.14

Return reported inhibition; argument: `CS(=O)(=O)Nc1ccc(N/C=C2\C(=O)Nc3ccccc32)cc1` 16.4

Return reported inhibition; argument: `Cc1cc(O)cc(C)c1/C=C/c1cncc(-c2nn[nH]n2)c1` 79.9

Return reported inhibition; argument: `CC(C)=Cc1cccc2c1/C(=N/Nc1ccc(S(N)(=O)=O)cc1)C(=O)N2` 26.6

Return reported inhibition; argument: `CC(=O)Nc1cccc(C#Cc2cncnc2Nc2ccc(OCc3cccc(F)c3)c(Cl)c2)n1` 3.88

Values from ChEMBL document CHEMBL1961873
